Cited source for all entries: the supplement of paper PMC10266784

B1: library; numbered along this chain (parent)
chain: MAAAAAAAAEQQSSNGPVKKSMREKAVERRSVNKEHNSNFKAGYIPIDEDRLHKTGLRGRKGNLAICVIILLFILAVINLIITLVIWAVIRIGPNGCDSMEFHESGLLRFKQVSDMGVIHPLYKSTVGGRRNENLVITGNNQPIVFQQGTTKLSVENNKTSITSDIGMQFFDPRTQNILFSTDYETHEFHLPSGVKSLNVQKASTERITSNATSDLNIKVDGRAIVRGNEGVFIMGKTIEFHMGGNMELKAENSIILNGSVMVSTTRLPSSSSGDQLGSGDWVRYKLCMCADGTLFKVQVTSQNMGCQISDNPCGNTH

- Variants of: B1
- ASSAY_NAME: SGCB cell-surface expression functional score (HA stain, bin4 vs bin1, normalised to synonymous) (log10 ratio); higher = more cell-surface SGCB (functional)
PROPERTY_NAME: SGCB cell-surface expression functional score (log10)
Answers are plain numbers.

// known answers, use as guide
G167P :: -1.01
I218F :: 0.87
H53W :: -0.6
L249N :: -0.2
F171L :: 0.15

Each variant below has a reported value. Please supply its SGCB cell-surface expression functional score (log10).
1. A9W
2. N312W
3. R284F
4. V298W
5. N39M

-0.24
0.57
-0.51
0.29
-0.61

Below are 3 variants. Give each one its SGCB cell-surface expression functional score (log10).
1. R58D
2. I256L
3. K124H

1. 0.21
2. 0.37
3. -0.35

For each entry beneath this line, provide reported SGCB cell-surface expression functional score (log10).
1. D48M
2. G16Y
3. K54C
4. I66K

0.77
0.23
0.29
0.5
